Exercise: for every item that follows, state its recorded IC50.
molecular target: PDE4B (Homo sapiens); assay: In-vitro assay for PDE4 enzymes, real-time enzyme-coupled spectrophotometric assay, PDE4B Activity (Table 10); assay type: biochemical; conditions: human PDE4B (hPDE4B), enzyme-coupled spectrophotometric assay; read-out: PDE4B Activity, hPDE4B
Sequence (Q07343 whole entry): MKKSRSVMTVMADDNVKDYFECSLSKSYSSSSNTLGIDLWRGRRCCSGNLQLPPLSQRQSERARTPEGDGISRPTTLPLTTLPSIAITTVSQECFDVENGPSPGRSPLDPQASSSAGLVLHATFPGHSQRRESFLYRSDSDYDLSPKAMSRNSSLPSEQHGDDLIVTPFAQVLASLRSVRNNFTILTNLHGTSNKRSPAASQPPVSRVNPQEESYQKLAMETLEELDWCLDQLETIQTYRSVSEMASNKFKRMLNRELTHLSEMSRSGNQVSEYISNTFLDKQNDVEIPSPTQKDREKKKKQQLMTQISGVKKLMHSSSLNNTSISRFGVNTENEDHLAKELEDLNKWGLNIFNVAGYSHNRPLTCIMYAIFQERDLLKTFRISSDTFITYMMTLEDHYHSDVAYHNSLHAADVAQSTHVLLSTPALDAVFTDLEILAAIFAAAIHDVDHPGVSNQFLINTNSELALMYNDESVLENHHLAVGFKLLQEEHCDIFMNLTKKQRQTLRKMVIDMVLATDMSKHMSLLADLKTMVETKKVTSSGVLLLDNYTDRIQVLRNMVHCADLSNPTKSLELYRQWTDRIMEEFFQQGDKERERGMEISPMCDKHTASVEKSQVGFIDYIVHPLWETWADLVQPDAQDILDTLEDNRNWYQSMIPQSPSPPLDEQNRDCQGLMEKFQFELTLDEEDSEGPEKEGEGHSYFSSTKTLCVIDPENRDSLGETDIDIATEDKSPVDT

Log: PDE4B (Homo sapiens), compound COc1ccc(Cc2ccc3[nH]c(=O)oc3c2)c(F)c1-c1cccc(Cl)c1 [P-263] , IC50 = < 5 µM

Log: PDE4B (Homo sapiens), compound COc1ccc(Oc2ccc(N)nc2)c(F)c1-c1cccc(C#N)c1 [P-439] , IC50 = < 5 µM

Log: PDE4B (Homo sapiens), compound O=C1CCCN1Cc1ccc(O)c(-c2cccc([N+](=O)[O-])c2)c1 [P-503] , IC50 = 5 to 20 µM

Log: PDE4B (Homo sapiens), compound CNc1ccc(Cc2ccc(OC)c(-c3cccc(C(C)=O)c3)c2F)cn1 [P-336] , IC50 = < 5 µM

# credit: patent US8791267B2
